Please go through the items and note down their IC50.
# target: human cGAS (residues 161-522) (Homo sapiens, UniProt Q8N884)
# Construct: Recombinantly expressed purified human cGAS (residues 161-522) was used at 25 nM
# Sequence (Q8N884 161-522): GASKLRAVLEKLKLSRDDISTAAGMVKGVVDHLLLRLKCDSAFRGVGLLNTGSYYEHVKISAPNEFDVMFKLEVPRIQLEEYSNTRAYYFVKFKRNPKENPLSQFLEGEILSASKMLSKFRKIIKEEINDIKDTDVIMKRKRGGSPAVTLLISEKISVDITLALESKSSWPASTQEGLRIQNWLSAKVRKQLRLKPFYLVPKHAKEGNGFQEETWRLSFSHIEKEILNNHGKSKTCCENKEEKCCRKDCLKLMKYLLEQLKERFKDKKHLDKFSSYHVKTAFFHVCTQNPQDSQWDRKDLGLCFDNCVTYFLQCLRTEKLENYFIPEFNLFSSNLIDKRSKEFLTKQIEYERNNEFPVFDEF
# measurement-description: Malachite Green assay to measure cGAS activity (coupled enzymatic assay, phosphate detection)
# measurement-context: recombinant human cGAS 25 nM; 80 μM ATP, 80 μM GTP, 100 nM ISD; 4 hour at RT
Answers are plain numbers, in µM.

Consider the reported IC50 for these compounds:
>  <compound>
Cc1ccc(-c2ccc3c(c2)C(=O)NS(=O)(=O)N3Cc2ccccc2)c(Cl)c1 [Example 6]

>  <IC50 (µM)>
20.1

$$$$
>  <compound>
Cc1ccc(-c2ccc3c(c2)C(=O)N(CCN2CCOCC2)S(=O)(=O)N3)c(Cl)c1 [Example 5]

>  <IC50 (µM)>
17.6

$$$$
>  <compound>
Cc1ccc(-c2ccc3c(c2)C(=O)NS(=O)(=O)N3CCN2CCOCC2)c(Cl)c1 [Example 2]

>  <IC50 (µM)>
9.6

$$$$

// batch mode: one IC50 value per listed entry
1. Cc1ccc(-c2ccc3c(c2)C(=O)NS(=O)(=O)N3)c(Cl)c1 [Example 1]
2. Cc1ccc(-c2ccc3c(c2)C(=O)NS(=O)(=O)N3Cc2ccncc2)c(Cl)c1 [Example 3]
3. Cc1ccc(-c2ccc3c(c2)C(=O)NS(=O)(=O)N3CCc2ccccc2)c(Cl)c1 [Example 4]

Result:
2.94
14.2
17.2
